Classify: yes (1) when melting point is strictly less than 200 °C; no (0) when melting point is not.

In plain terms, does CCCCN(CCCC)c1nnc2n(C)c(=O)c3cc(Cl)ccc3n12 [Compound 167] come in under 200 °C for melting point? yes (1)

Then this compound: O=c1nc2n(CCCc3ccccc3)nc(N3CCCCCC3)n2c2ccc(Cl)cc12 [Compound 129] yes (1)

Here is the next compound: Cc1ccc2c(c1)c(=O)n(CC=Cc1ccncc1)c1nnc(N(C)C)n21 [Compound 105] yes (1)

Then this compound: O=c1c2cc(Br)ccc2n2c(N3CCCC3)nnc2n1CCO [Compound 68] no (0)

Same read-out for Cc1ccc(Cn2c(=O)c3cc(Br)ccc3n3c(N4CCCC4)nnc23)cc1 [Compound 42] ? no (0)

Would you kindly repeat that for COC(=O)C(c1ccccc1)n1c(=O)c2cc(Br)ccc2n2c(N(C)C)nnc12 (stereo not drawn) [Compound 90] ? no (0)

Check O=c1c2cc(Br)ccc2n2c(N3CCC(O)C3)nnc2n1Cc1ccccc1 (stereo not drawn) [Compound 187] too. yes (1)

And then COc1ccccc1Cn1nc(N2CCCCCC2)n2c3ccc(Cl)cc3c(=O)nc12 [Compound 120] , what is it? yes (1)

Ok, now O=c1c2cc(Br)ccc2n2c(N3CCCC3)nnc2n1CCOc1ccccc1 [Compound 71] yes (1)

Please give the result for O=c1nc2n(Cc3ccc(C(F)(F)F)cc3)nc(N3CCCCCC3)n2c2ccc(Cl)cc12 [Compound 118] too. no (0)

Please answer likewise for O=c1c2cc(Br)ccc2n2c(N3CCCC3)nnc2n1Cc1ccc(F)cc1 [Compound 44] yes (1)

// query: N#Cc1ccc(Cn2nc(N3CCCCCC3)n3c4ccc(Cl)cc4c(=O)nc23)cc1 [Compound 119] no (0)

What would you report for O=c1c2cc(Br)ccc2n2c(N3CCCC3)nnc2n1CC=Cc1cccnc1 [Compound 61] ? yes (1)

Now this one: COc1ccc(CCn2c(=O)c3cc(Cl)ccc3n3c(N4CCCCCC4)nnc23)cc1 [Compound 25] yes (1)

Then this compound: Cn1c(=O)c2cc(Cl)ccc2n2c(N3CC4CCC(C)(C3)C4(C)C)nnc12 (stereo not drawn) [Compound 170] yes (1)
